- assay-text: NCI Yeast Anticancer Drug Screen. Data for the bub3 strain (AID 167)
- experimental-parameters: S. cerevisiae bub3 mutant strain, at 50.0 µM, hits give high values
This is part of a sample that, as a whole, favours compounds with a hit. Of some 79,000 tested, about 15% had one in any assay.
quantity-measured: growth inhibition (%)
Answer in %, number only, no unit symbol.

## Input Please give measured growth inhibition of the following entry: CCCSC(=O)Nc1ccc(Cc2ccc(NC(=O)SCCC)cc2)cc1
## Output 16.4

## Input Read off the recorded growth inhibition for O=C1NC(=O)c2c(Br)c(Br)c(Br)c(Br)c21
## Output -16.6

## Input Let me know recorded growth inhibition for Nc1ccccc1C(F)(F)F , thanks.
## Output 3.3

## Input Supply recorded growth inhibition for CC(=O)[C@H]1CC[C@H]2[C@@H]3CCC4=CC(=O)CC[C@]4(C)[C@H]3C[C@H](OS(=O)(=O)c3ccc(C)cc3)[C@]12C here.
## Output 12.1

## Input Please look at this molecule and report its growth inhibition: OCC(O)COCC#Cc1ccccc1 (stereo unspecified)
## Output -14.6

## Input Please look at this molecule and report its growth inhibition: O=C(Nc1ccc([N+](=O)[O-])cc1)N1CCOCC1
## Output 25.2

* * *

- assay-text: NCI Yeast Anticancer Drug Screen. Data for the mec2-1 strain (AID 157)
- experimental-parameters: S. cerevisiae mec2-1 strain, at 50.0 µM, hits give high values
The panel holds about 79,000 compounds, 15% with a hit somewhere; the sample as a whole holds those more often.
quantity-measured: growth inhibition (%)
Provide the reading as a plain figure in %.

## Input Please give the documented growth inhibition of N#CC1=C(Nc2ccccc2)CCC1
## Output -11.6

## Input Entry CN1C(=O)CC(c2ccc(Cl)cc2)C1=O (configuration not stated) needs its growth inhibition filled in; supply it.
## Output 21.4

## Input Read off the recorded growth inhibition for C1CCC(NCSC2=NCCS2)CC1
## Output -4.7

## Input Please indicate growth inhibition recorded for O=C(N/N=C\c1ccc(Cl)c(Cl)c1)c1ccncc1
## Output -1

## Input State, in one line, measured growth inhibition of O=c1cc(S(=O)(=O)Cc2ccccc2)[nH]c(=O)[nH]1
## Output 6.75

## Input Please look at this molecule and report its growth inhibition: COC(=O)c1cc(-c2ccccc2Cl)n2c(N)nnc2n1
## Output -3.1

## Input Quickly give me recorded growth inhibition for Cc1nnc2cc1CCCCCCCCC2
## Output 6.25

## Input Please supply the value of reported growth inhibition for the item CCCCCCCCCC(=O)N/N=C/c1cccs1
## Output 24.2

## Input Output measured growth inhibition for this item: Cc1cc(C)c2cnnn2n1
## Output -14.1

## Input Quick one: give measured growth inhibition for COc1ccc(OC)c(NC(=O)C(=O)C(C(=O)c2ccccc2F)C2OC(=O)c3ccccc32)c1 (configuration not stated)
## Output -20.2

## Input Report growth inhibition, nothing else, for this molecule: COC(CNCCO)c1ccccc1 (configuration not stated)
## Output -17.6

## Input Note growth inhibition for the molecule shown: Nc1[nH]c(=S)nc2nc3c(c(-c4ccccc4)c12)CCCC3
## Output -13.5

## Input Identify the reported growth inhibition for the following entry. C/C=N/Nc1ccccc1
## Output -1.4

## Input Provide growth inhibition value for the following molecule: CC(=O)n1nc(Cl)c2cccnc2c1=O
## Output -1.1

## Input Tell me growth inhibition reported for Ic1ccccc1
## Output 7.25

## Input Assign growth inhibition to the following record: N#CC12CC3CC(CC(C3)C1)C2
## Output -1.5

## Input Identify the reported growth inhibition for the following entry. COc1ccc(OC)c(NC(=O)Nc2nccs2)c1
## Output 42.9

## Input Please supply the value of reported growth inhibition for the item O=c1ccc2cc(Br)ccc2o1
## Output 16.7

## Input Check the records and state growth inhibition for CC(=O)c1cc2c(cc1C)C(C)(C)CCC2
## Output 14.2

## Input Kindly indicate its recorded growth inhibition. Item: COc1ccc(C2Nc3cc(Cl)ccc3NC3=C2C(=O)CC(C)(C)C3)cc1 (configuration not stated)
## Output 30.9

## Input Give the reported growth inhibition for this molecule. CC/C(=N/NS(=O)(=O)c1ccc(C)cc1)c1ccc(O)cc1
## Output 18.1

## Input Please report the measured growth inhibition for Cc1cc[n+](C)c(-c2ccccc2)c1
## Output -2.25

## Input Quickly give me recorded growth inhibition for CC1C=C(OC(=O)c2ccccc2)C(=O)C(n2cc(F)c(=O)n(C(=O)c3ccccc3)c2=O)O1 (configuration not stated)
## Output 47.3

## Input Look up growth inhibition of COC(=O)C(=O)c1c(C(=O)OC)nc2nnc(N)n2c1-c1ccc(O)c(OC)c1 and report it.
## Output -11.9

## Input Write down growth inhibition measured for item C[n+]1ccccc1/C=C/c1cccc([N+](=O)[O-])c1
## Output -2.7

## Input Given the molecule O=S(=O)(CS(=O)(=O)c1ccccc1Br)c1ccccc1Br , write its reported growth inhibition.
## Output 30.3

## Input Tell me its growth inhibition given Oc1cc(CN2CCOCC2)c(O)c(CN2CCOCC2)c1CN1CCOCC1 as the entry.
## Output 7.45

* * *

- assay-text: NCI Yeast Anticancer Drug Screen. Data for the mlh1 rad18 strain (AID 175)
- experimental-parameters: S. cerevisiae mlh1 rad18 strain growth inhibition; at 50.0 µM
This is part of a sample that, as a whole, favours compounds with a hit. Of some 79,000 tested, about 15% had one in any assay. Activity calls are given as the source filed them. No stated cut-off is given here; in the data, active means growth inhibition above about 70%; inactive means the rest.
Mark one answer only. Choices: 1 (active), -1 (inactive)

## Input Field: outcome | Entry: O=C(Cn1cc[n+](CC(=O)c2ccccc2)c1)c1ccccc1
## Output -1

## Input Each compound tested received a call. Report the one for O=C(O)c1ccc(B(O)O)cc1[N+](=O)[O-] .
## Output -1

## Input Check the results log: what was the call for N=C(N)C=O ?
## Output -1

## Input Query: recorded result category for CC1=N/C(=C\c2ccc([N+](=O)[O-])cc2)C(=O)O1 in this test
## Output -1

## Input Each compound tested received a call. Report the one for O=C(O)CCNc1ccccc1C(=O)O .
## Output -1

## Input Which outcome was entered for the compound CC(C)CCC[C@@H](C)[C@H]1CC[C@H]2[C@@H]3CC=C4C[C@@H]([n+]5ccccc5)CC[C@]4(C)[C@H]3CC[C@]12C in this test?
## Output -1

## Input // return assay outcome for NNCCc1n[nH]c(=O)n1N
## Output -1

## Input Please indicate how the test categorized O=C1NCCc2c1sc1ccccc21 .
## Output -1

## Input Look up the recorded call for CN(C)c1ccc(C(Cc2ccccc2)C2NC(=S)NC2=O)cc1 (stereo not given) in this test.
## Output -1

## Input Recorded test outcome, item O=C1C=C(Nc2ccccc2C(=O)c2ccccc2)c2ccccc2C1=O
## Output -1

## Input Outcome logged for O=S(=O)(/N=C1C=C/C(=N\S(=O)(=O)c2ccccc2)C2C/1C2(c1ccccc1)c1ccccc1)c1ccccc1 (stereo not given) in this assay:
## Output -1

## Input Field: outcome | Entry: CCOC(=O)C(C(=O)CC)C(=O)OCC
## Output -1

## Input Status in this test for COC(=O)/C(=C/C=C/c1ccccc1)N=[N+]=[N-] ?
## Output -1

## Input Tell me the assay call for CCC(=O)Oc1ccccc1C(C)C please.
## Output -1

## Input // param item: COC(=O)CC(C)N(c1ccc(OC)cc1)S(=O)(=O)c1ccc(C)cc1 (stereo not given) ; yields the recorded call
## Output -1

## Input Assay outcome for O=C1C(c2ccccc2)=C(c2ccccc2)C(c2ccc(Cc3ccc(C4=C(c5ccccc5)C(=O)C(c5ccccc5)=C4c4ccccc4)cc3)cc2)=C1c1ccccc1 : what was it?
## Output -1

## Input Query: recorded result category for CC(C)C(=O)OCc1ccc(Cl)cc1 in this test
## Output -1

## Input Kindly provide the recorded test outcome for the following compound: O=c1c2ccccc2nc(-c2ccccc2)n1/N=C/c1ccccc1O
## Output -1

## Input Kindly provide the recorded test outcome for the following compound: CC(=O)C1CCCCCCC1=O (stereo not given)
## Output -1

## Input Hi team, can someone confirm the assay call for C/C(=C/c1ccccc1)C(=O)O ?
## Output -1

## Input Given O=C(c1ccco1)C(O)c1ccccc1 (stereo not given) , state the outcome it received in this test.
## Output -1

## Input For C[C@H]1C[C@H]2[C@@H]3CC[C@@]4(OCC4=O)[C@@]3(C)C[C@H](O)[C@]2(F)[C@@]2(C)C=CC(=O)C=C12 , which call appears in the assay record?
## Output -1

## Input Query: recorded result category for CCC1CN2C(=N1)c1ccccc1-c1cc([N+](=O)[O-])ccc12 (stereo not given) in this test
## Output 1

## Input How did this test come out for O=C(O)Cc1cc2cccc([N+](=O)[O-])c2[nH]1 ?
## Output -1

## Input How did this test come out for Nc1nc2scnc2c(=O)[nH]1 ?
## Output -1

Entry source: PubChem BioAssay (NCI)
